Taken from paper PMC10776994.

Molecular target: T1, SDS22_(56-360):PP1α_(7-330) complex (UniProt Q15435 56-360; P62136 7-330)
T1 construct: SDS22 (PPP1R7), residues 56-360; Protein phosphatase 1 alpha catalytic subunit (PP1α), residues 7-330; PP1 in this complex lacks the M1 metal; The same complex treated with EDTA (M2 metal extracted) is kept as this molecule and told apart by assay a4; the His6 tag of SDS22 was cleaved, so it is probably His6-PP1; also called SDS22:PP1; SDS22:PP1_(M2-metal-free) / metal-free …
T1 sequence (Q15435 56-360, chain 1 of 2): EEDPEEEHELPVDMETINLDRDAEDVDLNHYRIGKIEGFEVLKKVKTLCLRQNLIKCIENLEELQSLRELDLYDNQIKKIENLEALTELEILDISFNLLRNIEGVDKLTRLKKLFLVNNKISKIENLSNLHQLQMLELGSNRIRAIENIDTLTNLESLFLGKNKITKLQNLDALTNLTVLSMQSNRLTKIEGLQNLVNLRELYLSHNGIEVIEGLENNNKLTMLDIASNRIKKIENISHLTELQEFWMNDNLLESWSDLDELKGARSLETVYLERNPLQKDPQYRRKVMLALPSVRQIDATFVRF
T1 sequence (P62136 7-330, chain 2 of 2): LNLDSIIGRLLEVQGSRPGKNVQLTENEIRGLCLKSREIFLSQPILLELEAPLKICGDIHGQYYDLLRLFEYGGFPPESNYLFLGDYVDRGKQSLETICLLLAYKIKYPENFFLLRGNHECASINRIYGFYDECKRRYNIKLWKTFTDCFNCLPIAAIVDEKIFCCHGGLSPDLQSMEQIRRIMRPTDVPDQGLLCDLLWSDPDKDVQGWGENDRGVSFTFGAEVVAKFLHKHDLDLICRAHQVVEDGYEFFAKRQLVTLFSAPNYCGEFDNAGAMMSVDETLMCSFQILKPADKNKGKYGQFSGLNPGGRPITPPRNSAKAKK
Assay: SPR; His6-PP1 constructs or SDS22_(56-360):PP1α_(7-330) captured on a Ni-NTA chip (NiHC200M), I3 and variants injected; 25 °C; 20 mM Tris pH 8.0, 500 mM NaCl, 0.5 mM TCEP, 0.05% Tween-20; one-to-one one-state or two-state fit
Conditions: both partners purified
Readings of Kd for the listed binders

BINDER: SLTIKLRKRKPEKKVEWTSDTVDNEHMGRRSSKSSSIYEKPR (domain or fragment, human, UniProt O60927 27-68, looked up, also called I3_(27-68) SSS; SSS: I3_(27-68) CCC→SSS; source: E. coli BL21 (DE3), purified (Ni-NTA, TEV, heat 95 °C, SEC); not shown: His6, N-terminal, cleaved; MBP, N-terminal, cleaved) [I3_(27-68) C60S/C61S/C62S]
UOM: nM
Kd: 429

BINDER: SLTIKLRKRKPEKKVEWTSDTVDNEHMGRRSSK (domain or fragment, human, UniProt O60927 27-59, looked up, made by a stop codon in the I3 27-68 construct; lacks the CCC motif; also called I3_(ΔCCC); CCC_(deletion); source: E. coli BL21 (DE3), purified (Ni-NTA, TEV, heat 95 °C, SEC); not shown: His6, N-terminal, cleaved; MBP, N-terminal, cleaved) [I3_(27-59) (Δ60–68)]
UOM: nM
Kd: 396

BINDER: SLTIKLRKRKPEKKVEWTSDTVDNEHMGRRSSKCCCIYEKPR (domain or fragment, human, UniProt O60927 27-68, looked up, source: E. coli BL21 (DE3), purified (Ni-NTA, TEV, heat 95 °C, SEC); not shown: His6, N-terminal, cleaved; MBP, N-terminal, cleaved) [I3_(27-68)]
UOM: nM
Kd: 116
